# Test protocol: TM value detection by solubility curve method (SYBR Green I)
# Format: physicochemical
# Condition description: extension fragment deformation+core short-sequence RNA nanoparticles; temperature at ½ RFUmax in 20 to 90 DEG C. taken as Tm
{Biotin} = biotin label attached at strand end
Classification field: criterion met = TM value at or over 60 °C; criterion not met = TM value under 60 °C.

q: Kindly determine if TM value recorded for R-16: extension fragment deformation+core short-sequence RNA nanoparticles, strands SEQ ID NO: 123-125, a-strand 3′-biotin, 2′F (nucleic acid, chain 1: 3' {Biotin}, sugars by position and backbone not given here; chain 2: sugars by position and backbone not given here; chain 3: sugars by position and backbone not given here; RNA nanoparticle, 2'-fluoro modified) chain 1: GCGGCGAGCGGCGAGCAGCGUUCGGGCCGGAGGCCGG chain 2: CCGGCCUCCGGCCCGUUCGCCGCCAGCCGCC chain 3: GGCGGCAGGCGGCCAUAGCGCUCGCCGCUCGCCGC is above or exactly 60 °C.
a: criterion not met

q: Kindly determine if TM value recorded for R-17: extension fragment deformation+core short-sequence RNA nanoparticles, strands SEQ ID NO: 126-128, a-strand 3′-biotin, 2′F (nucleic acid, chain 1: 3' {Biotin}, sugars by position and backbone not given here; chain 2: sugars by position and backbone not given here; chain 3: sugars by position and backbone not given here; RNA nanoparticle, 2'-fluoro modified) chain 1: GCGGCGAGCGGCGAGGAGCGUUGGGGCCGGAGGCCGG chain 2: CCGGCCUCCGGCCCCUUCGCCGCCAGCCGCC chain 3: GGCGGCAGGCGGCCAUAGCCCUCGCCGCUCGCCGC is above or exactly 60 °C.
a: criterion not met

q: Kindly determine if TM value recorded for R-18: extension fragment deformation+core short-sequence RNA nanoparticles, strands SEQ ID NO: 129-131, a-strand 3′-biotin, 2′F (nucleic acid, chain 1: 3' {Biotin}, sugars by position and backbone not given here; chain 2: sugars by position and backbone not given here; chain 3: sugars by position and backbone not given here; RNA nanoparticle, 2'-fluoro modified) chain 1: GCGGCGAGCGGCGAGCAGCGUUCGGGCCGGAGGCCGG chain 2: CCGGCCUCCGGCCCGUUCGGCGCCAGCCGCC chain 3: GGCGGCAGGCGCCCAUAGCGCUCGCCGCUCGCCGC is above or exactly 60 °C.
a: criterion not met

q: Kindly determine if TM value recorded for R-15: extension fragment deformation+core short-sequence RNA nanoparticles, strands SEQ ID NO: 120-122, a-strand 3′-biotin, 2′F (nucleic acid, chain 1: 3' {Biotin}, sugars by position and backbone not given here; chain 2: sugars by position and backbone not given here; chain 3: sugars by position and backbone not given here; RNA nanoparticle, 2'-fluoro modified) chain 1: GCGGCGAGCGGCGAGGAGCGUUGGGGCCGGAGGCCGG chain 2: CCGGCCUCCGGCCCCUUCGGGGCCAGCCGCC chain 3: GGCGGCAGGCCCCCAUAGCCCUCGCCGCUCGCCGC is above or exactly 60 °C.
a: criterion not met

q: Kindly determine if TM value recorded for R-19: extension fragment deformation+core short-sequence RNA nanoparticles, strands SEQ ID NO: 132-134, a-strand 3′-biotin, 2′F (nucleic acid, RNA nanoparticle strands, 2'-fluoro modified, a-strand 3'-biotin, positions not given here) chain 1: GCGGCGAGCGGCGAGCAGCGUUCGGGCCGGAGGCCGG chain 2: CCGGCCUCCGGCCCGUUCGGCCCCAGCCGCC chain 3: GGCGGCAGGGGCCCAUAGCGCUCGCCGCUCGCCGC is above or exactly 60 °C.
a: criterion not met

q: Kindly determine if TM value recorded for R-21: extension fragment deformation+core short-sequence RNA nanoparticles, strands SEQ ID NO: 138-140, a-strand 3′-biotin, 2′F (nucleic acid, RNA nanoparticle strands, 2'-fluoro modified, a-strand 3'-biotin, positions not given here) chain 1: GCGGCGAGCGGCGACGAGCGUUGCGGCCGGAGGCCGG chain 2: CCGGCCUCCGGCCGCUUCGGCGCCAGCCGCC chain 3: GGCGGCAGGCGCCCAUAGCCGUCGCCGCUCGCCGC is above or exactly 60 °C.
a: criterion met

Ref: patent US20220047617A1
